Target: SOS1:KRAS (G12C) interaction (Homo sapiens (Human))
Sequence (Q07889 564-1049, stated change not applied): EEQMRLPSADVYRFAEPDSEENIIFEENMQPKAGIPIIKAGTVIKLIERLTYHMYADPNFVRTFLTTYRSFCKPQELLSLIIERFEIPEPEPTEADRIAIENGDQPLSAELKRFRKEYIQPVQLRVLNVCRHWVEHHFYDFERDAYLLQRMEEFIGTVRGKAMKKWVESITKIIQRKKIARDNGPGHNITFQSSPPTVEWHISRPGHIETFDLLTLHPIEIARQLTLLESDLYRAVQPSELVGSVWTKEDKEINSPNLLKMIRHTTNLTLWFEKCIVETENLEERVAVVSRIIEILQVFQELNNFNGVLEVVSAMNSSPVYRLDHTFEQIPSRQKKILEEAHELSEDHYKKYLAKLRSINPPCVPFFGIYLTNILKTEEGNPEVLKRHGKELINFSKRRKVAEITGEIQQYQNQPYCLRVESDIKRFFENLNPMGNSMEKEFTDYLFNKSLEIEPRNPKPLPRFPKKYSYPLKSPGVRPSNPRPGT
Test: SOS1 KRas(G12C) FRET Assay
Conditions: 0.5 nM His10-SOS1 (res. 564-1049), 2.5 nM GST-KRAS G12C (res. 1-169), 2 hrs at RT
pIC50: −log10 of the molar value.
reported endpoint: pIC50

1. CO[C@H]1CN(C)CC[C@@H]1Nc1cc(=O)n(C2CCOCC2)cc1C(=O)N[C@H](C)c1cccc(C(F)(F)F)c1C (single isomer, unassigned): 7.15
2. C[C@@H](NC(=O)c1cn(C2(C(F)F)CC2)c(=O)cc1NCC1(F)CN(C)C1)c1cccc(C(F)F)c1F: 7.51
3. C[C@H](Nc1cc(=O)n(C2(C(F)F)CC2)cc1C(=O)N[C@H](C)c1cccc(C(F)F)c1F)c1cncn1C: 7.21
